Where do the numbers come from? From patent US20150165065A1.

# experimentalTarget: T1, integrin αVβ3 (UniProt P06756 31-992; P05106 27-718)
# T1 construct: Coated on the ELISA plate
# T1 sequence (P06756 31-992, chain 1 of 2): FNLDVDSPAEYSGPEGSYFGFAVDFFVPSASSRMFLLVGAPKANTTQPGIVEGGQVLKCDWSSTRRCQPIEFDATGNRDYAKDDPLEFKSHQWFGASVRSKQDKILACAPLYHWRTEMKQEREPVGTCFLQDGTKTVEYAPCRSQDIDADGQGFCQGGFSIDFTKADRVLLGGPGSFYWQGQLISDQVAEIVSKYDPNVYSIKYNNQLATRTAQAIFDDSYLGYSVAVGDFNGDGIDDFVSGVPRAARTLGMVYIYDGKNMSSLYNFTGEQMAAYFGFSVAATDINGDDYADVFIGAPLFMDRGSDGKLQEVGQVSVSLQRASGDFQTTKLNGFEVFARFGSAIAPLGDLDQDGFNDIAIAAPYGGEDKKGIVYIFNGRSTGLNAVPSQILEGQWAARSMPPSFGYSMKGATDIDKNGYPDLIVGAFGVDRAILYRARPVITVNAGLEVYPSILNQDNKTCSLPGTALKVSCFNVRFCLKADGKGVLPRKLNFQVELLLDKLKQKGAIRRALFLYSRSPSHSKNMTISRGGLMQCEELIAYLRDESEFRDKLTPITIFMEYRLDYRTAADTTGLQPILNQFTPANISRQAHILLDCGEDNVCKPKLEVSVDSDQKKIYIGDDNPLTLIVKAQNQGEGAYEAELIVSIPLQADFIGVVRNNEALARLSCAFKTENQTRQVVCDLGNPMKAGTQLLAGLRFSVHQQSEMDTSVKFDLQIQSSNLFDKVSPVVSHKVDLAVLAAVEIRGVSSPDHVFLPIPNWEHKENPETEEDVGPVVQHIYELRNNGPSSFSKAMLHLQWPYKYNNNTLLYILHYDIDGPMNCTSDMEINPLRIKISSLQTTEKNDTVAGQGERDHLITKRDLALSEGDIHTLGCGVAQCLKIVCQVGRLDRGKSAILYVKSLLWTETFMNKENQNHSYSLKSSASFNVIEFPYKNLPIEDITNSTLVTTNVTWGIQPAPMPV
# T1 sequence (P05106 27-718, chain 2 of 2): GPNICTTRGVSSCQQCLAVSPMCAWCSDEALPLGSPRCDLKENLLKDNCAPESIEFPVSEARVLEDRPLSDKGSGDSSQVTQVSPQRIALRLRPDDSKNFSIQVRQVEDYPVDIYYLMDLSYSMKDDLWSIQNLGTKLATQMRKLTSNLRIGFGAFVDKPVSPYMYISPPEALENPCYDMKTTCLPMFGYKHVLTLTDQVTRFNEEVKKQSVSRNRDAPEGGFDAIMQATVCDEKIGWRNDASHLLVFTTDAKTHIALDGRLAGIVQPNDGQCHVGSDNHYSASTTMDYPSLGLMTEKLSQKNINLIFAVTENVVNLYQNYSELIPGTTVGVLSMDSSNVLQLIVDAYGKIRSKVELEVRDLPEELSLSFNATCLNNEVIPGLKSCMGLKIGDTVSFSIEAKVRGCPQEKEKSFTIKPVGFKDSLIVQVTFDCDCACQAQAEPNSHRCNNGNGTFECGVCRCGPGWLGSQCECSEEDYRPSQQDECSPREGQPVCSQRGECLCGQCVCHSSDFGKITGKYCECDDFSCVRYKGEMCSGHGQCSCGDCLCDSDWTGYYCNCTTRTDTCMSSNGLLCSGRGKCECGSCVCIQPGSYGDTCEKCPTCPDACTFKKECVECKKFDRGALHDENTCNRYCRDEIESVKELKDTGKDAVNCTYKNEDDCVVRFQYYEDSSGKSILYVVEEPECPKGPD
# measurementDescription: ELISA, coated integrin, anti-MICA-HRP
measuredQuantity: αvβ3 signal (OD)

>>> observedmeasurement("soluble MICA generated from pKK46 (loop 1 insert extended 5.1sp) (designed binder, From pKK34 (His6, Glu125); secreted by 293T cells; also called 1-5.1sp) HHHHHHEPHSLRYNLTVLSWDGSVQSGFLTEVHLDGQPFLRCDRQKCRAKPQGQWAEDVLGNKTWDRETRDLTGNGKDLRMTLAHIKDQKEGLHSLQEIRVCEIHEDNSTRSSQHFYYDGELFLSQNLETEEWTMPQSSRAQTLAMNVRNFLKEDAMKTKTHYHAMHADCLQELRRYLKSGVVLRRTVPPMVNVTSGGSGGGSVTRGDTFTQSSGGSGGGVTCRASGFYPWNITLSWRQDGVSLSHDTQQWGDVLPDGNGTYQTWVATRICQGEEQRFTCYMEHSGNHSTHPVPSGK")
0.467
>>> observedmeasurement("soluble MICA generated by pSW273 (wild type loops, negative control) (ligand, Secreted by 293T cells; six His between signal peptide and residue 1; made from pSW267 (Glu125); also called WT) HHHHHHEPHSLRYNLTVLSWDGSVQSGFLTEVHLDGQPFLRCDRQKCRAKPQGQWAEDVLGNKTWDRETRDLTGNGKDLRMTLAHIKDQKEGLHSLQEIRVCEIHEDNSTRSSQHFYYDGELFLSQNLETEEWTMPQSSRAQTLAMNVRNFLKEDAMKTKTHYHAMHADCLQELRRYLKSGVVLRRTVPPMVNVTRSEASEGNITVTCRASGFYPWNITLSWRQDGVSLSHDTQQWGDVLPDGNGTYQTWVATRICQGEEQRFTCYMEHSGNHSTHPVPSGK")
0.099
>>> observedmeasurement("soluble MICA generated from pKK128 (loop 1 extended 5.1sp, loop 3 extended 3.2sp) (designed binder, From pKK115 (from pKK46: His6, Glu125); secreted by 293T cells; also called 1-5.1sp/3-3.2sp) HHHHHHEPHSLRYNLTVLSWDGSVQSGFLTEVHLDGQPFLRCDRQKCRAKPQGQWAEDVLGNKTWDRETRDLTGNGKDLRMTLAHIKDQKEGLHSLQEIRVCEIHEDNSTRSSQHFYYDGELFLSQNLETEEWTMPQSSRAQTLAMNVRNFLKEDAMKTKTHYHAMHADCLQELRRYLKSGVVLRRTVPPMVNVTSGGSGGGSVTRGDTFTQSSGGSGGGVTCRASGFYPWNITLSWRQDGVSLSHDTQQWGDVLPDGNGTYQTWVATRISGGSGGGSTSRGDHPRTQSGGSGGGCYMEHSGNHSTHPVPSGK")
0.811
>>> observedmeasurement("soluble MICA generated from pKK130 (loop 1 extended 5.1sp, loop 3 extended 5.3sp) (designed binder, From pKK115 (from pKK46: His6, Glu125); secreted by 293T cells; also called 1-5.1sp/3-5.3sp) HHHHHHEPHSLRYNLTVLSWDGSVQSGFLTEVHLDGQPFLRCDRQKCRAKPQGQWAEDVLGNKTWDRETRDLTGNGKDLRMTLAHIKDQKEGLHSLQEIRVCEIHEDNSTRSSQHFYYDGELFLSQNLETEEWTMPQSSRAQTLAMNVRNFLKEDAMKTKTHYHAMHADCLQELRRYLKSGVVLRRTVPPMVNVTSGGSGGGSVTRGDTFTQSSGGSGGGVTCRASGFYPWNITLSWRQDGVSLSHDTQQWGDVLPDGNGTYQTWVATRISGGSGGGSHLARGDDLTYSGGSGGGCYMEHSGNHSTHPVPSGK")
0.606
